Origin of the recorded values: patent US10577373B2

Give pIC50 for every item shown.
# Tested on: GM-CSF induced STAT5 phosphorylation mediated by the JAK2/JAK2 homdimeric complex
# METHOD SUMMARY: GM-CSF Induced pSTAT5 in Human PBMC
# CONDITION PARAMETERS: Homo sapiens, PBMC, 20 min, read-out: PBMC_GMCSF_pSTAT5 IC50, human PBMC; GM-CSF 5 ng/mL for 20 minutes; pSTAT5
pIC50: −log10 of the molar value.

**Query** For GM-CSF induced STAT5 phosphorylation mediated by the JAK2/JAK2 homdimeric complex, give the measured pIC50 of the entry "CNc1cc(Nc2cccn(-c3cccc(C)n3)c2=O)nc2c(C(=O)N[C@H]3C[C@H]3F)cnn12"
**Result** < 4.90

**Query** For GM-CSF induced STAT5 phosphorylation mediated by the JAK2/JAK2 homdimeric complex, give the measured pIC50 of the entry "CNc1cc(Nc2cc(Cl)cn(-c3cnn(C)c3)c2=O)nc2c(C(=O)NC3CC3)cnn12"
**Result** < 4.90

**Query** For GM-CSF induced STAT5 phosphorylation mediated by the JAK2/JAK2 homdimeric complex, give the measured pIC50 of the entry "CCOc1ccc(-n2cccc(Nc3cc(NC)n4ncc(C(=O)N[C@H]5C[C@H]5F)c4n3)c2=O)nn1"
**Result** < 5.60

**Query** For GM-CSF induced STAT5 phosphorylation mediated by the JAK2/JAK2 homdimeric complex, give the measured pIC50 of the entry "CNc1cc(Nc2cccn([C@H]3CC[C@H](OC)CC3)c2=O)nc2c(C(=O)N[C@@H]3CC[C@@H]3O)cnn12"
**Result** < 5.60

**Query** For GM-CSF induced STAT5 phosphorylation mediated by the JAK2/JAK2 homdimeric complex, give the measured pIC50 of the entry "CNc1cc(Nc2cc(C)cn(-c3ccn(C)n3)c2=O)nc2c(C(=O)N[C@H]3C[C@H]3F)cnn12"
**Result** < 4.90

====

# Test system: GM-CSF induced STAT5 phosphorylation mediated by the JAK2/JAK2 homdimeric complex
# METHOD SUMMARY: GM-CSF Induced pSTAT5 in Human PBMC
# CONDITION PARAMETERS: Homo sapiens, PBMC, 20 min, read-out: PBMC_GMCSF_pSTAT5 IC50, human PBMC; GM-CSF 5 ng/mL for 20 minutes; pSTAT5
pIC50: −log10 of the molar value.
OBSERVABLE: pIC50

**Query** Give the reported value of pIC50 for this record: "CNc1cc(Nc2cccnc2OC)nc2c(C(=O)NO)cnn12"
**Result** < 4.30

**Query** Give the reported value of pIC50 for this record: "CNc1cc(-c2cn(C(C)C)c3ncccc23)nc2c(C(=O)NC3CCC3)cnn12"
**Result** < 4.30

**Query** Give the reported value of pIC50 for this record: "CNc1cc(Nc2cccnc2OC)nc2c(C(=O)N[C@H]3CC[C@H]3O)cnn12"
**Result** < 4.30

**Query** Give the reported value of pIC50 for this record: "CNc1cc(Nc2cc(F)cn(-c3ccn(C)n3)c2=O)nc2c(C(=O)NC3CC3)cnn12"
**Result** < 4.90

**Query** Give the reported value of pIC50 for this record: "CNc1cc(Nc2cc(F)cn(-c3cnn(C)c3)c2=O)nc2c(C(=O)NC3CC3)cnn12"
**Result** < 4.90

**Query** Give the reported value of pIC50 for this record: "[2H]C([2H])([2H])Oc1ncc(C)cc1Nc1cc(NC)n2ncc(C(=O)N[C@H]3C[C@H]3F)c2n1"
**Result** < 4.90

**Query** Give the reported value of pIC50 for this record: "CNc1cc(Nc2cccn([C@@H]3CCC[C@@H](O)C3)c2=O)nc2c(C(=O)N[C@@H]3C[C@@H]3F)cnn12"
**Result** < 5.60

**Query** Give the reported value of pIC50 for this record: "CNc1cc(-c2cn(C(C)C)c3ncccc23)nc2c(C(=O)N[C@@H]3COC[C@@H]3O)cnn12"
**Result** < 4.30

====

# Test system: GM-CSF induced STAT5 phosphorylation mediated by the JAK2/JAK2 homdimeric complex
# METHOD SUMMARY: GM-CSF Induced pSTAT5 in Human PBMC
# CONDITION PARAMETERS: Homo sapiens, PBMC, 20 min, read-out: PBMC_GMCSF_pSTAT5 IC50, human PBMC; GM-CSF 5 ng/mL for 20 minutes; pSTAT5
pIC50: −log10 of the molar value.
OBSERVABLE: pIC50

**Query** Give the reported value of pIC50 for this record: "CNc1cc(-c2cn(C(C)C)c3ncccc23)nc2c(C(=O)N[C@@H]3CC[C@H]3O)cnn12"
**Result** < 4.90

**Query** Give the reported value of pIC50 for this record: "CNc1cc(Nc2cccn([C@H]3CC[C@H](OC)CC3)c2=O)nc2c(C(=O)N[C@@H]3CC[C@H]3O)cnn12"
**Result** < 4.30

**Query** Give the reported value of pIC50 for this record: "CNc1cc(Nc2cc(F)cnc2OC2CC2)nc2c(C(=O)N[C@H]3C[C@H]3F)cnn12"
**Result** < 4.30

====

Give IC50 for every item shown.
# Test system: GM-CSF induced STAT5 phosphorylation mediated by the JAK2/JAK2 homdimeric complex
# METHOD SUMMARY: GM-CSF Induced pSTAT5 in Human PBMC
# CONDITION PARAMETERS: Homo sapiens, PBMC, 20 min, read-out: PBMC_GMCSF_pSTAT5 IC50, human PBMC; GM-CSF 5 ng/mL for 20 minutes; pSTAT5

**Query** Give the reported value of IC50 for this record: "CNc1cc(Nc2cccn(-c3cnn(CC4CCOCC4)c3)c2=O)nc2c(C(=O)NC3CC3)cnn12"
**Result** > 12.5 µM

**Query** Give the reported value of IC50 for this record: "CNc1cc(Nc2cc(F)cn(-c3cc(C)n(C)n3)c2=O)nc2c(C(=O)N[C@H]3C[C@H]3F)cnn12"
**Result** > 2.5 µM

**Query** Give the reported value of IC50 for this record: "CNc1cc(Nc2cccc([C@H]3CCCOC3)n2)nc2c(C(=O)N[C@H]3C[C@H]3F)cnn12"
**Result** > 50 µM

**Query** Give the reported value of IC50 for this record: "CNc1cc(-c2cn(C(C)C)c3ncccc23)nc2c(C(=O)N[C@@H]3CC[C@@H]3O)cnn12"
**Result** > 50 µM

**Query** Give the reported value of IC50 for this record: "CNc1cc(Nc2cc(Cl)cn(-c3ncc(C)s3)c2=O)nc2c(C(=O)N[C@H]3C[C@H]3F)cnn12"
**Result** > 2.5 µM

**Query** Give the reported value of IC50 for this record: "CNc1cc(Nc2cccn(-c3cnn(C)c3F)c2=O)nc2c(C(=O)N[C@H]3CC[C@@H]3OC)cnn12"
**Result** > 50 µM

**Query** Give the reported value of IC50 for this record: "CNc1cc(Nc2cccc3ocnc23)nc2c(C(=O)NC3CC3)cnn12"
**Result** > 12.5 µM

**Query** Give the reported value of IC50 for this record: CNc1cc(Nc2cccc3ocnc23)nc2c(C(=O)N[C@@H]3CC[C@H]3O)cnn12 (racemic)
**Result** > 50 µM

**Query** Give the reported value of IC50 for this record: "CNc1cc(Nc2cccn([C@H]3CCC[C@H]3O)c2=O)nc2c(C(=O)N[C@@H]3C[C@@H]3F)cnn12"
**Result** > 50 µM
